Where do the numbers come from? From patent US20230227449A1.

SYSTEM NAME: Recombinant human Mat2a (Homo sapiens, UniProt P31153)
Sequence (P31153 whole entry): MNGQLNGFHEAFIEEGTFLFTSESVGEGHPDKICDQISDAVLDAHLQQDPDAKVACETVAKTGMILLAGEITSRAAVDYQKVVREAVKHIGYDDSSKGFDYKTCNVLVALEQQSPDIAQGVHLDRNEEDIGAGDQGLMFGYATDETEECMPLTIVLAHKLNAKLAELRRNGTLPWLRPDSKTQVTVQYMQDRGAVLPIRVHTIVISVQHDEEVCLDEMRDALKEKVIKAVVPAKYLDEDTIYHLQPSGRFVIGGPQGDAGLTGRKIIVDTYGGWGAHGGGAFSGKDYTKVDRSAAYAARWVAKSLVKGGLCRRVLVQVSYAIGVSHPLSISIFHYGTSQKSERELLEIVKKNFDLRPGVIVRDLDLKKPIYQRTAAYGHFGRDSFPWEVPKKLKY
ASSAY NAME: Determination of Mat2A activity (384 well absorbance-based assay, Biomol Green)
Type: biochemical
STATED CONDITIONS: 12.5 nM Mat2A, 100 μM ATP and Methionine, 2% DMSO, 120 minutes at RT, absorbance at 635 nm
Can you tell me pIC50 for the items I'm about to list?
Answers are plain numbers, as −log10 of the molar value.

Worked cases, answers included:
CC(C1CCOC1)n1c(=O)nc(N)c2ccc(C3CC3)nc21 (stereo not drawn) [Example 13] ... 7.64
COc1cc(C(F)(F)F)cc2c1c(N)nc(=O)n2-c1cccnc1C [Example 102] ... 7.85
COc1c(C#N)cccc1-n1c(=O)nc(N)c2cc(Cl)c(C3CC3)nc21 [Example 65] ... 7.74
Nc1nc(=O)n(-c2ccccc2)c2nc(C3CC3)ccc12 [Example 74] ... 7.80
Cc1ncncc1-n1c(=O)nc(N)c2ccc(C3CCCC3)nc21 [Example 55] ... 7.77

# ---- query molecule ----
*Q* Assign pIC50 to the following record: Nc1nc(=O)n(-c2cccc(Cl)c2)c2nc(C3CC3)ccc12 [Example 152]
*A* 7.85

====

Field: IC50. Provide a value for each of the compounds that follow.
SYSTEM NAME: Recombinant human Mat2a (Homo sapiens)
ASSAY NAME: Determination of Mat2A activity (384 well absorbance-based assay, Biomol Green)
STATED CONDITIONS: 12.5 nM Mat2A, 100 μM ATP and Methionine, 2% DMSO, 120 minutes at RT, absorbance at 635 nm
Method: Determination of Mat2A activity Measurement of Mat2A inhibition is performed in 384 well format absorbance-based assay. […] The absorbance signal is measured at λ=635 nm with a multiplate reader (BMG Pherastar reader or equivalent) after 30 min of equilibration at RT.
Answers are plain numbers, in µM.

COc1ccccc1-c1c(=O)nc(N)n2ccc(C(F)(F)F)cc12 ... 0.037
Cc1ncccc1-n1c(=O)nc(N)c2ccc([C@@H]3C[C@H]3C)nc21 (racemic) ... 0.018
Nc1nc(=O)n([C@H]2CCC[C@H]2O)c2nc(C3CC3)ccc12 (racemic) ... 0.017
CCNc1ccc2c(N)nc(=O)n(-c3ccccc3C)c2c1 ... 0.017
Nc1nc(=O)n(-c2cccc(OC(F)(F)F)n2)c2nc(C3CC3)ccc12 ... 0.031

*Q* Specify IC50 for `Cc1ccccc1-n1c(=O)nc(N)c2cnc(C3CC3)cc21` , system Recombinant human Mat2a (Homo sapiens).
*A* 0.043

====

SYSTEM NAME: Recombinant human Mat2a (Homo sapiens, UniProt P31153)
ASSAY NAME: Determination of Mat2A activity (384 well absorbance-based assay, Biomol Green)
STATED CONDITIONS: 12.5 nM Mat2A, 100 μM ATP and Methionine, 2% DMSO, 120 minutes at RT, absorbance at 635 nm
Please go through the items and note down their IC50.

Answered cases to consult:
Cc1c(CF)cccc1-n1c(=O)nc(N)c2ccc(C3CC3)nc21 ... < 13 nM
Nc1nc(=O)n(-c2ccccc2OC(F)(F)F)c2nc(C3CC3)ccc12 ... < 13 nM
COc1ncccc1-n1c(=O)nc(N)c2ccc(C3CC3)nc21 ... < 13 nM
Nc1nc(=O)n([C@H]2CCCOC23CC3)c2nc(C3CC3)ccc12 ... < 13 nM
CCc1ccc2c(N)nc(=O)n(-c3cccnc3C)c2c1 ... < 13 nM

For every item below, please supply its IC50.
1. Nc1nc(=O)n(-c2cccc(F)c2F)c2nc(C3CC3)ccc12
2. COc1cccc(-n2c(=O)nc(N)c3ccc(C4CC4)nc32)n1
3. Nc1nc(=O)n([C@@H]2CCCOC23CC3)c2nc(C3CC3)ccc12
4. Cc1ncccc1-n1c(=O)nc(O)c2ccc(C3CC3)nc21
5. Nc1nc(=O)n(-c2ccc(F)cc2Cl)c2nc(C3CC3)ccc12
6. Cc1cccc(-n2c(=O)nc(N)c3ccc(OC(F)F)cc32)c1
7. Cc1c(F)cccc1-n1c(=O)nc(N)c2ccc(C3CC3)cc21

*A*
["< 13 nM", "< 13 nM", "< 13 nM", "40 nM", "16 nM", "20 nM", "< 13 nM"]

Parameters: items (list). Returns: IC50 for each item.
1. Cc1ncccc1-n1c(=O)nc(N)c2ccc(C(F)(F)F)cc21
2. Cc1c(C#N)cccc1-n1c(=O)nc(N)c2ccc(C(F)(F)F)cc21
3. Cc1ncccc1-n1c(=O)nc(N)c2cc(F)c(C3CC3)nc21
4. COc1cccc(-n2c(=O)nc(N)c3ccc(C4CC4)nc32)c1
5. Cc1ncccc1-n1c(=O)nc(N)c2ccc(C(F)F)cc21
6. Cc1c(F)cccc1-n1c(=O)nc(N)c2ccc(C3CC3)nc21 (single isomer, unassigned) [Example 104]
7. Nc1nc(=O)n(-c2cccnc2Cl)c2nc(C3CC3)ccc12 (single isomer, unassigned) [Example 136]
8. Nc1nc(=O)n(-c2cccc3ncsc23)c2nc(C3CC3)ccc12

*A*
1: < 13 nM; 2: < 13 nM; 3: < 13 nM; 4: < 13 nM; 5: < 13 nM; 6: 110 nM; 7: 150 nM; 8: < 13 nM

Hi, could you look up IC50 for each item in my list?
1. CCc1cccc(-n2c(=O)nc(N)c3ccc(C4CC4)nc32)c1
2. Nc1nc(=O)n(-c2ccccc2Cl)c2nc(C3CC3)ccc12 (single isomer, unassigned) [Example 114]
3. Nc1nc(=O)n(-c2cccc3c2OCC3)c2nc(C3CC3)ccc12
4. Nc1nc(=O)n(-c2cccc3c2CCO3)c2nc(C(F)(F)F)ccc12
5. Nc1nc(=O)n([C@@H]2CCCCOC2)c2nc(C3CC3)ccc12

*A*
["< 13 nM", "< 13 nM", "15 nM", "< 13 nM", "< 13 nM"]

List reported IC50 for each of these molecules:
1. Cc1cccc(-n2c(=O)nc(N)c3ccc(C4CC4)nc32)c1F
2. Nc1nc(=O)n(-c2cccc(OC(F)F)n2)c2nc(C3CC3)ccc12
3. Nc1nc(=O)n(-c2cccc3c2CCO3)c2nc(C3CC3)ccc12
4. Cc1ccccc1-n1c(=O)nc(N)c2ccc(OC(F)F)cc21
5. Cc1ccccc1-n1c(=O)nc(N)c2ccc(Cl)nc21
6. Cc1ncccc1-n1c(=O)nc(N)c2c(Cl)cc(C(F)(F)F)cc21
7. Cc1ncccc1-n1c(=O)nc(N)c2c(F)cc(C(F)(F)F)cc21

*A*
1: 13 nM; 2: < 13 nM; 3: 95 nM; 4: < 13 nM; 5: 20 nM; 6: 20 nM; 7: 14 nM
